TEST METHOD NOTES: plasma concentrations after single oral dosing in human volunteers
Assay type: in vivo
CONDITION INFO: single oral dose 0.8 mg
RECORDED METRIC: Cmax (µM)

- COc1nc(N)c2ncn([C@@H]3O[C@H](CO)[C@@H](O)[C@H]3O)c2n1 [Compound 1, 2-methoxyadenosine]: 0.04

----------
TEST METHOD NOTES: plasma concentrations after single oral dosing in human volunteers
Assay type: in vivo
CONDITION INFO: single oral dose 21 mg
RECORDED METRIC: Cmax (nM)

• COc1nc(N)c2ncn([C@@H]3O[C@H](CO)[C@@H](O)[C@H]3O)c2n1 = 500

----------
The following molecules are shown together with reported Ki values.
SYSTEM UNDER TEST: adenosine receptors (rat striatal membranes, [3H]-CGS21680) (Rattus norvegicus)
Sequence (P30543 whole entry): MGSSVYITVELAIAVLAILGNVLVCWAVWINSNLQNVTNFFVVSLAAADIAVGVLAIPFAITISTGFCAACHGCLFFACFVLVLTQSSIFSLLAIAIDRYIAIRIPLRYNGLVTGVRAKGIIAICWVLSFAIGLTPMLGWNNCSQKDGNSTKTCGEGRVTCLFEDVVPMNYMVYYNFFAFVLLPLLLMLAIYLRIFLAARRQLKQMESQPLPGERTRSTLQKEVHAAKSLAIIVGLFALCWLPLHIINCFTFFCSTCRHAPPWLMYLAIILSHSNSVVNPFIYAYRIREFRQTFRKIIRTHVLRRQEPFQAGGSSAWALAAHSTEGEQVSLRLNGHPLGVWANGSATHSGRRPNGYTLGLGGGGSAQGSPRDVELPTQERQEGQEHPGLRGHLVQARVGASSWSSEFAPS
TEST METHOD NOTES: Ki from displacement of [3H]-CGS21680 in rat striatal membranes at pH 5.5 and pH 7.4
Assay type: binding
Design: from tissue; host or cells: rat striatum (membranes)
CONDITION INFO: pH 7.4; 2 nM [3H]-CGS21680, 90 minutes at 22° C.; read-out: (Ki) nM (pH 7.4)
RECORDED METRIC: Ki (nM)

- Nc1nc(Nc2ccc(F)cc2)nc2c1ncn2[C@@H]1O[C@H](CO)[C@@H](O)[C@H]1O: 200
- N#Cc1ccc(Oc2nc(N)c3ncn([C@@H]4O[C@H](CO)[C@@H](O)[C@H]4O)c3n2)cc1: 1300
- Nc1nc(Oc2ccc3c(c2)CCC3)nc2c1ncn2[C@@H]1O[C@H](CO)[C@@H](O)[C@H]1O: 760
- CN(Cc1ccccc1)c1ncnc2c1ncn2[C@@H]1O[C@H](CO)[C@@H](O)[C@H]1O: 18500

----------
SYSTEM UNDER TEST: adenosine A2A receptor (UniProt P30543)
TEST METHOD NOTES: EC50 at the adenosine A2A receptor
Format: biochemical
RECORDED METRIC: EC50

* COc1nc(N)c2ncn([C@@H]3O[C@H](CO)[C@@H](O)[C@H]3O)c2n1 | ~1 µM

----------
The following compounds are shown together with reported log10 of Ki values.
SYSTEM UNDER TEST: UniProtKB P30543
TEST METHOD NOTES: Ki from displacement of [3H]-CGS21680 in rat striatal membranes at pH 5.5 and pH 7.4
Assay type: binding
Design: from tissue; host or cells: rat striatum (membranes)
CONDITION INFO: pH 7.4; 2 nM [3H]-CGS21680, 90 minutes at 22° C.; read-out: (Ki) nM (pH 7.4)
RECORDED METRIC: log10 of Ki (log10 of the value in nM)

- Nc1nc(Oc2ccc(F)cc2F)nc2c1ncn2[C@@H]1O[C@H](CO)[C@@H](O)[C@H]1O [Compound 10]: 3.81
- COc1nc(N)c2ncn([C@@H]3O[C@H](C(=O)Nc4ccccc4)[C@@H](O)[C@H]3O)c2n1 [Compound 53]: 4.42
- OC[C@H]1O[C@@H](n2cnc3c(OCC4CCCC4)ncnc32)[C@H](O)[C@@H]1O [Compound 48]: 4.32
- Nc1nc(Oc2cc(F)cc(F)c2F)nc2c1ncn2[C@@H]1O[C@H](CO)[C@@H](O)[C@H]1O [Compound 12]: 3.77
- Nc1nc(Nc2ccccc2)nc2c1ncn2[C@@H]1O[C@H](CO)[C@@H](O)[C@H]1O [Compound 26, 2-phenylamino adenosine]: 2.20
- Nc1nc(NC2CCCCC2)nc2c1ncn2[C@@H]1O[C@H](CO)[C@@H](O)[C@H]1O [Compound 30, 2-cyclohexylamino adenosine]: 3.00
